biological target: unrelated Fc-fused recombinant protein; assay: ELISA, lysate on plate-bound antigen
quantity-name: ELISA Fc Control (RSU)

INSERT INTO assay_data (binder, result) VALUES
  ('ISOP121BR5P1F7 (designed binder, not shown: small tags and cut ends, FN3 domain; E. coli lysate in the ELISA) LPAPKNLVVSRVTEDSARLSWHDATWQYFDSFLIQYQESEKVGEAIVLTVPGSERSYDLTGLKPGTEYTVSIYGVFHRKHIDFVSNPLSAIFTT', '720 RSU'),
  ('ISOP194AR9P1E9 (designed binder, not shown: small tags and cut ends, FN3 domain; E. coli lysate in the ELISA) LPAPKNLVVSRVTEDSARLSWEWLEHFDSFLIQYQESEKVGEAIVLTVPGSERSYDLTGLKPGTEYTVSIYGVYQRKVNFYSNPLSAIFTT', '5520 RSU');
